# Experimental Target: UGT1A1 (Homo sapiens, UniProt P22309)
# Sequence (P22309 26-533): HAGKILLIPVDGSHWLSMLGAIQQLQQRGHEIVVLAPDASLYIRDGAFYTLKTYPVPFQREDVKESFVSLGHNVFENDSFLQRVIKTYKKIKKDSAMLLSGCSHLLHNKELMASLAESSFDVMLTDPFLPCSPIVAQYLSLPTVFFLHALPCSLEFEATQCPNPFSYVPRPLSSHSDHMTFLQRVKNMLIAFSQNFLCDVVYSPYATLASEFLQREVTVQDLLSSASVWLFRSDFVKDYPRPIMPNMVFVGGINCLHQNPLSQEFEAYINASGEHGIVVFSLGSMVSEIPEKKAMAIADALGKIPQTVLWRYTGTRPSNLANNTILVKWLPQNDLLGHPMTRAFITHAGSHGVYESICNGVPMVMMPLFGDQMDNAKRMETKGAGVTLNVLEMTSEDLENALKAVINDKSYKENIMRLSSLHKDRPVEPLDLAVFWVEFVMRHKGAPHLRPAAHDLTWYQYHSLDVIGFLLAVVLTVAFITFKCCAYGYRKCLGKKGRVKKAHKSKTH
# Experiment Description: Inhibition of UGT1A1 (β-estradiol-3-O-glucuronidation)
# Condition Info: human, human UGT1A1 enzyme, probe β-estradiol (E2)
Measure: activity at 10 µM (%)
One number for each entry, in %.

Some entries whose results are on file:
For the compound shown here, CC(C)=CCc1cc(-c2coc3cc(O)ccc3c2=O)ccc1O , give the reported activity at 10 µM. 7.42

Likewise for COc1ccc(-c2oc3c(CC=C(C)C)c(O)cc(O)c3c(=O)c2O)cc1 ? 10.2

Request: CC(C)=CCc1c(O)ccc2c1O[C@H](c1ccc(O)cc1)CC2=O 4.58

Could you tell me activity at 10 µM for each of these compounds? They are listed below.
1. CC(C)=CCc1c(O)ccc(C(=O)/C=C/c2ccc(O)cc2)c1O
2. CC(C)=CCc1cc2c(cc1O)oc(=O)c1c3ccc(O)cc3oc21

3.97
1.48

* * *

# Experimental Target: UGT1A1 (Homo sapiens, UniProt P22309)
# Experiment Description: Inhibition of UGT1A1 (β-estradiol-3-O-glucuronidation)
# Condition Info: UGT1A1; best model by smallest AIC and SC
Measure: Inhibitory type

Which value of Inhibitory type has been reported for CC(C)=CCc1cc2c(cc1O)oc(=O)c1c3ccc(O)cc3oc21 in the records? Non-competitive

Can you check CC(C)=CCc1c(O)ccc(C(=O)/C=C/c2ccc(O)cc2)c1O next? Non-competitive

What would you report for CC(C)=CCc1cc2c(cc1O)O[C@H](c1ccc(O)cc1)CC2=O ? Non-competitive

* * *

# Experimental Target: UniProt:P22309
# Experiment Description: Inhibition of UGT1A1 (β-estradiol-3-O-glucuronidation)
# Condition Info: UGT1A1; best model by smallest AIC and SC
Measure: Inhibitory type

Worked cases, answers included:
# lookup: Inhibitory type of COc1ccc(-c2oc3c(CC=C(C)C)c(O[C@@H]4O[C@H](CO)[C@@H](O)[C@H](O)[C@H]4O)cc(O)c3c(=O)c2O)cc1 [Icariside I, icariside I] Non-competitive

Try this compound next: O=C(C=Cc1ccc(O)c2c1C(C(=O)OC(Cc1ccc(O)c(O)c1)C(=O)O)C(c1ccc(O)c(O)c1)O2)OC(Cc1ccc(O)c(O)c1)C(=O)O (stereo not drawn) Competitive

Next compound: CC(C)=CCC/C(C)=C/Cc1cc(-c2coc3cc(O)ccc3c2=O)ccc1O Competitive

Follow-up entry: CC(C)=CCc1cc(C(=O)/C=C/c2ccc(O)cc2)c(O)cc1O Non-competitive

Same question, COc1ccc(-c2oc3c(CC=C(C)C)c(O)cc(O)c3c(=O)c2O)cc1 this time Non-competitive

Others:
Any idea what its Inhibitory type is? The compound is CC(C)=CCc1cc(-c2coc3cc(O)ccc3c2=O)ccc1O Non-competitive

* * *

# Experimental Target: UGT1A1 (Homo sapiens, UniProt P22309)
# Experiment Description: Inhibition of UGT1A1 (β-estradiol-3-O-glucuronidation)
# Condition Info: UGT1A1; substrate E2
Measure: pKi
Answers are plain numbers, as −log10 of the molar value.

Recorded pKi for CC(C)=CCc1c(O)ccc2c1O[C@H](c1ccc(O)cc1)CC2=O with UGT1A1 (Homo sapiens, UniProt P22309), please? 5.47

* * *

# Experimental Target: UGT2B7 (Homo sapiens, UniProt P16662)
# Sequence (P16662 24-529): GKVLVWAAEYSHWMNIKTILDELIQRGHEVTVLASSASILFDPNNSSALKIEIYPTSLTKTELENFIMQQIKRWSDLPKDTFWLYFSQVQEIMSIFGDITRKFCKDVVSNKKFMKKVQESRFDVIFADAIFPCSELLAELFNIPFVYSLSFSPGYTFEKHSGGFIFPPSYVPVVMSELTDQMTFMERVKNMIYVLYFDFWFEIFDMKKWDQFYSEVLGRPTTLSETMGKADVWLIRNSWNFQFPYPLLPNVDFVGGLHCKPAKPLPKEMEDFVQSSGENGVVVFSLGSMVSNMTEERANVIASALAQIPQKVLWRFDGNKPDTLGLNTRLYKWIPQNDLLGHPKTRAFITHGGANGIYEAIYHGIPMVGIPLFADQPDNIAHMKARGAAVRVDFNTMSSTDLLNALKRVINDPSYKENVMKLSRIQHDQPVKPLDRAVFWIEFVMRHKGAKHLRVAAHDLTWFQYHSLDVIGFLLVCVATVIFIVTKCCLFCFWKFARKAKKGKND
# Experiment Description: Inhibition of UGT2B7 (zidovudine-N-glucuronidation)
# Condition Info: UGT2B7; best model by smallest AIC and SC
Measure: Inhibitory type

Requested read-out: Inhibitory type. Entry: CC(C)=CCc1cc(C(=O)/C=C/c2ccc(O)cc2)c(O)cc1O [Bavachalcone, bavachalcone] Competitive

Next up: C=C[C@@](C)(/C=C/c1ccc(O)cc1)CCC=C(C)C [Bakuchiol, bakuchiol] Competitive
